B1: ZNF511 (parent)
chain: FDALDDYEHHYHTLHGNVCSFCKR

# Variants of: B1
# assay: protein stability index of a GFP-peptide fusion (GPS, HEK-293T) (PSI 1-6); higher = more stable;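 further: lentivirally expressed fusions sorted by FACS into six bins by GFP to DsRed ratio, PSI derived from sequencing read proportions per bin multiplied by bin number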
# setup.conditions: c terminus: a fixed tail appended
Assign Met whenever protein stability index does not fall below 4; assign Not met whenever it does.

H15F = Not met

## Input Given E8D , state whether its protein stability index is at least 4.
## Output Not met

## Input Quick check, protein stability index >= 4? H15T
## Output Met
